# Protocol: Mean residence time of intravenously administered compound (1 mg/kg) in rat no.1 belonging to phenotype EM (extensive metabolizer)
# Type: ADME, organism-based
# Setup Conditions: in vivo, iv
Observation Type: MRT (min)
Express the result in min but write the number alone.

// query Entry under review: "COc1cc2ncnc(N3CCN(C(=O)Nc4ccc(C#N)cc4)CC3)c2cc1OC" . Reported MRT?
// result 39

====

# Protocol: Half-life period of intravenously administered compound (1 mg/kg) in rat no.8 belonging to the phenotype EM (extensive metaboliser)
# Type: ADME, organism-based
# Setup Conditions: in vivo, iv, read-out: T1/2 alpha (converted)
Observation Type: half-life (min)
Express the result in min but write the number alone.

// query Entry under review: "COCCOc1cc2c(N3CCN(C(=O)Nc4ccc(C#N)cc4)CC3)ncnc2cc1OC" . Reported half-life?
// result 2.69

====

# Protocol: Pharmacokinetic parameter (AUC) was determined after administering 1 mg/kg of compound intravenously in rat no.11 belonging to the phenotype […] (poor metaboliser)
# Format: ADME, organism-based
# Set-up: dose 1 mg/kg, route intravenous
# Setup Conditions: in vivo, iv
Observation Type: AUC (ng·h/mL)
Express the result in ng·h/mL but write the number alone.

// query Entry under review: "COCCOc1cc2c(N3CCN(C(=O)Nc4ccc(C#N)cc4)CC3)ncnc2cc1OC" . Reported AUC?
// result 950

====

# Protocol: Plasma clearance was determined after administering 1 mg/kg of compound intravenously in rat no.8 belonging to the phenotype EM (extensive metaboliser)
# Type: ADME, organism-based
# Parameters: dose 1 mg/kg, route intravenous
# Setup Conditions: iv
Observation Type: clearance (mL/min/kg)
Express the result in mL/min/kg but write the number alone.

// query Entry under review: "COCCOc1cc2c(N3CCN(C(=O)Nc4ccc(C#N)cc4)CC3)ncnc2cc1OC" . Reported clearance?
// result 14.4

====

# Protocol: Plasma clearance was determined after administering 1 mg/kg of compound intravenously in rat no.11 belonging to the phenotype […] (poor metaboliser)
# Type: ADME, organism-based
# Parameters: dose 1 mg/kg, route intravenous
# Setup Conditions: iv
Observation Type: clearance (mL/min/kg)
Express the result in mL/min/kg but write the number alone.

// query Entry under review: "COCCOc1cc2c(N3CCN(C(=O)Nc4ccc(C#N)cc4)CC3)ncnc2cc1OC" . Reported clearance?
// result 17.5

====

# Protocol: Maximum plasma concentration was determined after administering 30 mg/kg of compound orally n rat no.7 belonging to phenotype PM (poor metabolizer)
# Type: ADME, organism-based
# Set-up: dose 30 mg/kg, route oral
# Setup Conditions: po
Observation Type: Cmax (ng/mL)
Express the result in ng/mL but write the number alone.

// query Entry under review: "COc1cc2ncnc(N3CCN(C(=O)Nc4ccc(C#N)cc4)CC3)c2cc1OC" . Reported Cmax?
// result 35200

====

# Protocol: Mean residence time after oral administration of 30 mg/kg of compound in rat no.5 belonging to phenotype PM (poor metabolizer)
# Type: ADME, organism-based
# Design: dose 30 mg/kg, route oral
# Setup Conditions: in vivo
Observation Type: MRT (h)
Express the result in h but write the number alone.

// query Entry under review: "COc1cc2ncnc(N3CCN(C(=O)Nc4ccc(C#N)cc4)CC3)c2cc1OC" . Reported MRT?
// result 8.56
